tested on: HCT-15 colon; assay: NCI tumour cell line growth inhibition, 48 h
TGI values, listed per item

Some entries whose results are on file:
Cc1ccc(S(=O)(=O)c2ccc(NC(=O)SCCC(=O)O)cc2)cc1 | > 100 µM
CO/C=C/C(=O)c1cc2cnc3c(=N)cc(NC(=O)C(C)C)c([nH]1)c23 | 0.99 µM
O=C1/C(=C\c2ccc(F)cc2)CN(C(=O)c2ccccc2)C/C1=C\c1ccc(F)cc1 | 3.53 µM
CC(=O)Nc1ccc(/C=c2\sc3nnc(CCC(=O)Nc4ccccc4Cl)n3c2=O)cc1 | > 100 µM
Nc1nc2c(ncn2C2CCC(CO)O2)c(=O)n1C(=O)c1ccccc1 (stereo not given) | > 100 µM
O=C1C(C(O)(C(F)(F)Cl)C(F)(F)Cl)CCCC1C(O)(C(F)(F)Cl)C(F)(F)Cl (stereo not given) | > 10 µM
Nc1ccc2nc3c(nc2c1)C(=O)c1ccccc1-3 | > 100 µM
O=Cc1c2n(c3ccccc13)N[C@@](Cc1ccc(O)cc1)(C(=O)O)C2 | > 100 µM
N#C[C@H](C(=O)c1ccccc1F)c1nc2ccccc2s1 | > 100 µM

Next:
-- ask If you can, please state the reported TGI value of CC(=O)Nc1ccccc1-c1nc2ccccc2nc1C .
-- reply > 100 µM

* * *

system: PC-3 prostate; assay: NCI tumour cell line growth inhibition, 48 h
TGI values, listed per item
Express the result in nM but write the number alone.

Some entries whose results are on file:
CCOC(=O)[C@@H](C)C[C@H](Cc1ccccc1)NC(=O)c1nc([C@@H](C[C@H](C(C)C)N(C)C(=O)[C@@H](NC(=O)[C@H]2CCCCN2C)C(C)C)OC(C)=O)sc1CCOCc1ccccc1 | 2410
CCN(CC)Cc1cc(Nc2c3ccccc3nc3c2[nH]c2ccccc23)cc(CN(CC)CC)c1O | 2750
CO/C=C/C(=O)c1cc2cnc3c(=N)cc(NC(=O)C(C)C)c([nH]1)c23 | 817

Next:
-- ask If you can, please state the reported TGI value of CC[C@@H]1[C@@H](C)O[C@@](O)([C@@H](C)[C@H](O)[C@H](C)[C@H]2OC(=O)/C=C/C=C/[C@H](C)[C@@H]([C@@H](C)[C@@H](O)[C@H](C)[C@@]3(O)C[C@@H](O[C@H]4C[C@@H](O)[C@H](O)C(C)O4)[C@H](CC)[C@@H](C)O3)OC(=O)/C=C/C=C/[C@@H]2C)C[C@H]1O[C@@H]1C[C@@H](O)[C@H](O)C(C)O1 (stereo partly specified) .
-- reply 147

* * *

system: OVCAR-5 ovarian; experiment: NCI tumour cell line growth inhibition, 48 h
Metric: TGI

Oc1cc(O)c2ccc(-c3ccc(O)c(O)c3)[o+]c2c1 | > 100 µM
COc1ccc2sc3cccc(NCCN(C)C)c3c(=O)c2c1 | 14.5 µM

-- ask If you can, please state the reported TGI value of C=C(C)C1CC/C(C)=C/CCC2(C)OC2CC/C(CO)=C\C1O (stereo not drawn) .
-- reply > 100 µM

* * *

TGI values, listed per item
tested on: UACC-62 melanoma; experiment: NCI tumour cell line growth inhibition, 48 h
Express the result in µM but write the number alone.

O=C(COc1ccc(/C=C2\COc3ccccc3C2=O)cc1)Nc1nccs1 | 21.1
CN(C)CCCC1c2ccccc2Oc2ccc(C(F)(F)F)cc21 (stereo not given) | 23.4
Cc1cc(Nc2ccc(OCc3ccccc3)cc2)nc2cc(O)ccc12 | 10.7

-- ask If you can, please state the reported TGI value of CCCCCC1CC=CC(=O)O1 (stereo not given) .
-- reply 25.3

* * *

tested on: M14 melanoma; assay: NCI tumour cell line growth inhibition, 48 h
GI50 values, listed per item

-- ask If you can, please state the reported GI50 value of NC1=CC(=O)c2cccnc2C1=O .
-- reply 1.7 µM

* * *

GI50 values, listed per item
system: SK-MEL-2 melanoma; assay: NCI tumour cell line growth inhibition, 48 h

Cn1cc(C2=C(c3ccccc3[N+](=O)[O-])C(=O)NC2=O)c2ccccc21 | 2.92 µM
COC1C(CO)OC(n2c3ccccc3c3c4c(c5c6ccccc6[nH]c5c32)C(=O)NC4=O)C(O)C1O (stereo unspecified) | 0.234 µM
NC1=CC(=O)c2cccnc2C1=O | 1.63 µM

-- ask Please provide the recorded GI50 for CCCCCCCC/C=C/CCCCCCCC1=NC(C)(C)CN1CC(C)O (stereo unspecified) , tested on SK-MEL-2 melanoma.
-- reply 2.28 µM

-- ask Please provide the recorded GI50 for Cc1cc(Nc2ccc(OCc3ccccc3)cc2)nc2cc(O)ccc12 , tested on SK-MEL-2 melanoma.
-- reply 11.9 µM

-- ask Please provide the recorded GI50 for CO/C=C/C(=O)c1cc2cnc3c(=N)cc(NC(=O)C(C)C)c([nH]1)c23 , tested on SK-MEL-2 melanoma.
-- reply 0.0907 µM

-- ask Please provide the recorded GI50 for COc1ccc(C(=O)Nc2ncc(Cc3cccc(Cl)c3)s2)cc1OC , tested on SK-MEL-2 melanoma.
-- reply 0.557 µM

-- ask Please provide the recorded GI50 for COC1=CC(c2ccc[nH]2)=N/C1=C\c1[nH]c(C)c(CC(=O)OCc2ccccc2)c1CCC(=O)OCc1ccccc1 , tested on SK-MEL-2 melanoma.
-- reply 0.281 µM

-- ask Please provide the recorded GI50 for CC[C@@H]1[C@@H](C)O[C@@](O)([C@@H](C)[C@H](O)[C@H](C)[C@H]2OC(=O)/C=C/C=C/[C@H](C)[C@@H]([C@@H](C)[C@@H](O)[C@H](C)[C@@]3(O)C[C@@H](O[C@H]4C[C@@H](O)[C@H](O)C(C)O4)[C@H](CC)[C@@H](C)O3)OC(=O)/C=C/C=C/[C@@H]2C)C[C@H]1O[C@@H]1C[C@@H](O)[C@H](O)C(C)O1 (stereo partly specified) , tested on SK-MEL-2 melanoma.
-- reply 0.0808 µM

-- ask Please provide the recorded GI50 for Cc1ccc(NC(=O)c2ccc(CN3CCN(C)CC3)cc2)cc1Nc1nccc(-c2cccnc2)n1 , tested on SK-MEL-2 melanoma.
-- reply 22.1 µM

* * *

tested on: NCI-H522 lung; assay: NCI tumour cell line growth inhibition, 48 h
TGI values, listed per item
Express the result in µM but write the number alone.

CCOP(=O)(C=C=C1CCC2[C@@H]3CCc4cc(OC)ccc4C3CC[C@]12C)OCC (stereo not given in full) | 18.9

-- ask If you can, please state the reported TGI value of C[C@]12CC[C@@H]3c4cc(OC(F)F)c(O)cc4CC[C@H]3[C@@H]1CC[C@@H]2OS(N)(=O)=O .
-- reply 18.4

-- ask If you can, please state the reported TGI value of C[Si](C)(C)C#Cc1cc(-c2nc3ccccc3s2)ccc1N .
-- reply 27.3

-- ask If you can, please state the reported TGI value of O=C1C(Cl)=C(Sc2nnc3c4ccccc4c4ccccc4c3n2)C(=O)c2ccccc21 .
-- reply 57.7

-- ask If you can, please state the reported TGI value of Cc1cc(=O)[nH]c(N/N=C/c2cc(Br)ccc2O)n1 .
-- reply 22

-- ask If you can, please state the reported TGI value of COc1cc(C2S/C(=C/c3ccccc3)C(=O)N2c2ccc(NC(C)=O)cc2)cc(OC)c1OC (stereo not given) .
-- reply 26.6

-- ask If you can, please state the reported TGI value of CC(=O)Nc1ccc(/C=c2\sc3nnc(CCC(=O)Nc4ccccc4Cl)n3c2=O)cc1 .
-- reply 36.2

-- ask If you can, please state the reported TGI value of Cc1ccc(Cl)cc1Nc1nc(C(F)(F)F)ccc1C(=O)N/N=C/c1cccnc1 .
-- reply 22.5

* * *

test system: MDA-MB-231 breast; experiment: NCI tumour cell line growth inhibition, 48 h
*1 amine or outer side, *2 acyl side, *3 side chain or, on linkers, in order; H or OH if unused. Where a SMILES comes first, the peptide text is derived from it. [ ]: non-standard residue; d: D form. The star is where a group is joined. ξ: configuration not given here. X27 = O=C([C@H]1CCC[C@H]1N[*:1])[*:2]; ξW = NC(Cc1c[nH]c2ccccc12)C(=O)O; ξF = NC(Cc1ccccc1)C(=O)O; Boc = CC(C)(C)OC(=O)*; ξK = NCCCCC(N)C(=O)O; ξT = CC(O)C(N)C(=O)O; tBu = CC(C)(C)*
Metric: TGI

Some entries whose results are on file:
COc1cc2nc(Nc3cccc(Br)c3)nc(Nc3cccc(Br)c3)c2cc1OC | 39.7 µM
CC(C)(C)N1CCC1CN (configuration not stated) | > 100 µM
COc1ccc(-c2csc(=Nc3ccccc3)n2CCCN(C)C)cc1 | > 100 µM

-- ask If you can, please state the reported TGI value of CC(OC(C)(C)C)C1NC(=O)C(CCCCNC(=O)OC(C)(C)C)NC(=O)C(Cc2c[nH]c3ccccc23)NC(=O)C(Cc2ccccc2)NC(=O)[C@H]2CCC[C@H]2NC(=O)C(Cc2ccccc2)NC1=O (some centres not stated) (cyclo([X27][ξF][ξW][ξK](Boc)[ξT](tBu)[ξF])) .
-- reply > 100 µM

-- ask If you can, please state the reported TGI value of COC(=O)c1c(C)cccc1C1CN=NC12Cc1ccccc1C2=O (configuration not stated) .
-- reply > 100 µM

-- ask If you can, please state the reported TGI value of C=CCNC(=S)N=Nc1c(O)n(CN2CCOCC2)c2ccc([N+](=O)[O-])cc12 .
-- reply > 100 µM
